Catalogue of composite z-score readings, one per entry.
- testProtocol: small-molecule microarray binders of probe aWnt5a, primary screen, biochemical, biotinylated probe, 635/667 nm fluorescence (AID 1113);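 note: score merges 667 nm fluorescence intensity with signal-to-noise per printed feature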
- cond: higher = more signal

Task: // query composite z-score value for entry COC(=O)[C@H](C)NC(=O)CCC1CC(OC(=O)NCCc2ccc(F)cc2)CC2(CCCC(COC(=O)NCCOc3ccccc3)O2)O1 (some centres not stated)
Output: 0.055

====

- testProtocol: HepG2 cell viability effects, profiling panel, calcein-AM fluorescence, 48 h, basal (AID 1164); note: test concentration not given here
- cond: higher = more signal
readoutLabel: z-score
# answer = number (no unit)

# count of solved cases: 10
[
  {
    "molecule": "CC(C)(C)N1C(=O)[C@H]2[C@H]3[C@H](O)[C@H](O)CC(=NOC[C@@H](O)COCc4ccco4)[C@@H]3CC[C@H]2C1=O",
    "z-score": -0.274
  },
  {
    "molecule": "CCN1C(=O)[C@H]2[C@H]3[C@H](O)[C@H](O)CC(=NOC[C@@H](O)[C@H]4O[C@@H]5OC(C)(C)O[C@@H]5[C@H]4O)[C@@H]3CC[C@H]2C1=O",
    "z-score": 0.282
  },
  {
    "molecule": "COC(=O)[C@H](C)NC(=O)CCC1CC(OC(=O)NCCc2ccc(F)cc2)CC2(CCCC(COC(=O)NCCOc3ccccc3)O2)O1 (some centres not stated)",
    "z-score": 0.696
  },
  {
    "molecule": "COc1ccc2c(c1)O[C@@H](c1cccc(C(F)(F)F)c1)[C@H](O)C2=O",
    "z-score": -0.294
  },
  {
    "molecule": "O=C1[C@H]2[C@H]3[C@H](O)[C@H](O)CC(=NO[C@@H]4O[C@H](CO)[C@@H](O)[C@H](O)[C@H]4O)[C@H]3CC[C@H]2C(=O)N1c1ccc(F)cc1F",
    "z-score": -0.846
  },
  {
    "molecule": "CC(CCN1CCCCc2nc(C)c(C)cc21)=NOC[C@@H](O)[C@H]1O[C@@H]2OC(C)(C)O[C@@H]2[C@H]1O",
    "z-score": -1.33
  },
  {
    "molecule": "CCOC(=O)[C@H](CC(C)C)NC(=O)CCC1CC(OC(=O)NCc2ccc3c(c2)OCO3)CC2(CCCC(COC(=O)NCCOc3ccccc3)O2)O1 (some centres not stated)",
    "z-score": -1.78
  },
  {
    "molecule": "C=CC[C@@H]1C=C[C@H](ON=C(C)CCN2CCCc3nc(C)c(C)cc32)[C@@H](CO)O1",
    "z-score": 0.0526
  },
  {
    "molecule": "COc1ccc(O[C@H]2C=C[C@@H](C#Cc3ccccc3)O[C@@H]2CO)cc1",
    "z-score": -1.03
  },
  {
    "molecule": "CC(C)CN1CCc2nc(-c3ccccc3)c3c(c2C1)CO[C@@H](C)C3",
    "z-score": 0.0114
  }
]

Task: // query z-score value for entry CO[C@H]1COC(=O)CCC[C@H](C)[C@H](OC)COC(=O)CC=C[C@@H]1C
Output: 0.481

Task: What about this molecule? CC(=O)OC[C@H]1O[C@@H](ON=C2[C@H]3CCn4c(=O)n(-c5ccccc5)c(=O)n4[C@H]3[C@H](O)[C@@H]3O[C@H]23)[C@H](OC(C)=O)[C@@H](OC(C)=O)[C@@H]1OC(C)=O
Output: 0.707

Task: What about this molecule? COc1ccc(COC(=O)NN=C2C[C@@H](O)[C@@H](O)[C@@H]3[C@@H]4C(=O)N(c5cccc(Oc6ccccc6)c5)C(=O)[C@@H]4CC[C@H]23)cc1
Output: -0.634

Task: What about this molecule? CC(C)=NOC(C)CN1CCCCc2nc(C)c(C)cc21 (configuration not stated)
Output: -0.018

Task: What about this molecule? CC(=O)OC[C@H]1O[C@@H](ON=C(C)C)[C@H](OC(C)=O)[C@@H](OC(C)=O)[C@@H]1OC(C)=O
Output: -0.179

Task: What about this molecule? CCOC(=O)NN=C1C[C@@H](O)[C@@H](O)[C@@H]2[C@@H]3C(=O)N(c4ccc(F)cc4F)C(=O)[C@@H]3CC[C@H]12
Output: -0.925

Task: What about this molecule? CC(C)CON=C1C[C@@H](O)[C@@H](O)[C@@H]2[C@@H]3C(=O)N(c4ccc(F)cc4F)C(=O)[C@@H]3CC[C@@H]12
Output: -0.464
